Test system: OVCAR-3
measurementNotes: NCI tumour cell line growth inhibition, 48 h
Active and inactive are the calls of the source. Cut-off read from the data, not from the text of the source: active = GI50 up to about 1.1 µM and inactive = higher.

- compound: "Nc1cc2c(nc3c4ccccc4c(N)cc3[n+]2-c2cccc3ccccc23)c2ccccc12.Nc1cc2c(nc3c4ccccc4ccc3[n+]2-c2cccc3ccccc23)c2ccccc12"
  assayTarget: "OVCAR-3"
  GI50: "0.593 µM (active)"
- compound: "CCN(CC)C(=O)c1cc(OC(C)C)ccc1-c1c(C)cc(OC(C)C)c(OC)c1OC"
  assayTarget: "OVCAR-3"
  GI50: "71 µM (inactive)"
- compound: "COC1(OC)C2(Cl)CCC1(Cl)C(OC(C)=O)C2 (stereo not drawn)"
  assayTarget: "OVCAR-3"
  GI50: "> 100 µM (inactive)"
- compound: "O=c1cc(-c2ccccc2)c2ccc(O)c(CN(CCCl)CCCl)c2o1"
  assayTarget: "OVCAR-3"
  GI50: "19.3 µM (inactive)"
- compound: "Cc1ccc(C)c(N2C(=O)C(=O)C(c3nc4ccccc4o3)/C(=N/N)C2=O)c1 (stereo not drawn)"
  assayTarget: "OVCAR-3"
  GI50: "> 100 µM (inactive)"
- compound: "COC(=O)CSc1cc(Cl)c(C)cc1S(=O)(=O)Nc1n[nH]c(N)n1"
  assayTarget: "OVCAR-3"
  GI50: "> 10 µM (inactive)"
- compound: "COC(=O)c1sc2ncc3c(c2c1N)CCCCCC3"
  assayTarget: "OVCAR-3"
  GI50: "> 100 µM (inactive)"
- compound: "CC1=CC2=C(OCO1)C(=O)c1ccccc1C2=O"
  assayTarget: "OVCAR-3"
  GI50: "5.4 µM (inactive)"
- compound: "CN(C)C1(N(C)C)Oc2c(c(=O)n(C)c(=O)n2C)C(c2ccccc2)C1(F)F (stereo not drawn)"
  assayTarget: "OVCAR-3"
  GI50: "> 100 µM (inactive)"
- compound: "CC1=C(C(=O)Nc2ccccc2)C(c2ccc([N+](=O)[O-])cc2)C(C(=O)Nc2ccccc2)=C(C)N1"
  assayTarget: "OVCAR-3"
  GI50: "21.7 µM (inactive)"
- compound: "FC(F)(F)c1ccc2nc(Nc3ccc(Cl)c(Cl)c3)c(-c3ccccc3)nc2c1"
  assayTarget: "OVCAR-3"
  GI50: "37.5 µM (inactive)"
- compound: "Cc1cc2c(ccc[n+]2[O-])[n+]([O-])c1"
  assayTarget: "OVCAR-3"
  GI50: "> 100 µM (inactive)"
- compound: "CC(=O)NC(CCCCNC(=O)N(C)N=O)C(=O)NCc1ccccc1 (stereo not drawn)"
  assayTarget: "OVCAR-3"
  GI50: "> 100 µM (inactive)"
- compound: "Cn1ncc2cc3c(Nc4ccc(Cl)cc4)cccc3nc21"
  assayTarget: "OVCAR-3"
  GI50: "12.7 µM (inactive)"
- compound: "c1ccc([P+](CC[P+](c2ccccc2)(c2ccccc2)c2ccccc2)(c2ccccc2)c2ccccc2)cc1"
  assayTarget: "OVCAR-3"
  GI50: "13 µM (inactive)"
- compound: "CC(=O)/C(=C(/Br)I)c1ccccc1"
  assayTarget: "OVCAR-3"
  GI50: "6.49 µM (inactive)"
- compound: "C=CCC1=C2CCCCC2CCC1=O (stereo not drawn)"
  assayTarget: "OVCAR-3"
  GI50: "> 100 µM (inactive)"
- compound: "O=C1CC(=O)NC(NN2C(=O)CSC2C(=O)c2ccco2)=N1 (stereo not drawn)"
  assayTarget: "OVCAR-3"
  GI50: "> 100 µM (inactive)"
- compound: "CC(=C(C(=O)O)C(=O)O)c1cc(-c2cccs2)cc(-c2ccc(Cl)cc2)c1O"
  assayTarget: "OVCAR-3"
  GI50: "14.9 µM (inactive)"
- compound: "CC(=O)[C@H]1CCC2[C@@H]3CC=C4C(O)C(OS(=O)(=O)O)CC[C@]4(C)C3CC[C@@]21C (stereo partly drawn)"
  assayTarget: "OVCAR-3"
  GI50: "> 100 µM (inactive)"
- compound: "COC(=O)c1c(OC)cc2cc3c(c(O)c2c1C)C(=O)C1(O)C(=O)C=C(OC)C(OC(=O)CC(C)N)=C1C3=O (stereo not drawn)"
  assayTarget: "OVCAR-3"
  GI50: "22.6 µM (inactive)"
- compound: "Cc1ccc2c(O)cc(-c3ccc(Cl)s3)nc2n1"
  assayTarget: "OVCAR-3"
  GI50: "1.1 µM (active)"
- compound: "CSCCC(C(=O)O)N(CC1(O)OCC(O)C(O)C1O)N=O (stereo not drawn)"
  assayTarget: "OVCAR-3"
  GI50: "> 100 µM (inactive)"
- compound: "CCSCC(=O)N1CCc2c([nH]c3ccccc23)C1=O"
  assayTarget: "OVCAR-3"
  GI50: "> 100 µM (inactive)"
- compound: "NC(=O)Cc1nc2c(O)ncnc2n1C1OC(CO)C(O)C1O (stereo not drawn)"
  assayTarget: "OVCAR-3"
  GI50: "> 100 µM (inactive)"
- compound: "COC(=O)C(Cc1ccccc1)NP(=O)(O)OCC1OC(n2ccc(N)nc2=O)C(O)C1O (stereo not drawn)"
  assayTarget: "OVCAR-3"
  GI50: "> 100 µM (inactive)"
- compound: "CN(C)CCCNc1nnc(NCCCN(C)C)c2c(=O)c3sccc3[nH]c12"
  assayTarget: "OVCAR-3"
  GI50: "14.2 µM (inactive)"
- compound: "COC1CC(NC(=O)C(F)(F)F)C(OC(C)=O)C(C)O1 (stereo not drawn)"
  assayTarget: "OVCAR-3"
  GI50: "> 100 µM (inactive)"

---

Tested on: COLO 205
measurementNotes: NCI tumour cell line growth inhibition, 48 h
Activity calls are given as the source filed them. No stated cut-off is given here; in the data, active = GI50 up to about 1.1 µM and inactive = higher.

- compound: "Cc1nc2ccccc2n1Cc1nnc(N)o1"
  assayTarget: "COLO 205"
  GI50: "> 100 µM (inactive)"
- compound: "OCCN(CCO)c1cccc(N(CCO)CCO)n1"
  assayTarget: "COLO 205"
  GI50: "> 100 µM (inactive)"
- compound: "CS(=O)(=O)OCCN1CCN(C(=O)c2cccc3c(Nc4ccc(S(=O)(=O)N=C(N)N)cc4)c4ccccc4nc23)CC1"
  assayTarget: "COLO 205"
  GI50: "> 100 µM (inactive)"
- compound: "O=C(/C=C1\\Nc2ccccc2N\\C1=C\\C(=O)c1ccc(Cl)cc1)c1ccccc1"
  assayTarget: "COLO 205"
  GI50: "> 100 µM (inactive)"
- compound: "O=C(/C=C\\c1ccccc1)N1CCc2ccccc2C1"
  assayTarget: "COLO 205"
  GI50: "20.6 µM (inactive)"
- compound: "CCCCCCCN1C(=O)C(O)(c2ccc(C3(O)C(=O)N(CCCCCCC)c4ccccc43)s2)c2ccccc21 (configuration not stated)"
  assayTarget: "COLO 205"
  GI50: "1.63 µM (inactive)"
- compound: "O=c1oc2ccccc2cc1-c1csc(Nc2cc(Cl)cc(Cl)c2)n1"
  assayTarget: "COLO 205"
  GI50: "18 µM (inactive)"

---

Documented GI50 across a set of compounds
Tested on: M14
measurementNotes: NCI tumour cell line growth inhibition, 48 h
Activity calls are given as the source filed them. Rule as the data show it: active = GI50 up to about 1.1 µM and inactive = higher.

- structureSmiles: "OCCN(CCO)c1cccc(N(CCO)CCO)n1"
  GI50: "> 100 µM (inactive)"
- structureSmiles: "C(=N\\OCCc1ccccc1)/c1cccnc1"
  GI50: "> 100 µM (inactive)"
- structureSmiles: "COc1ccc(C(=O)/C=C/c2ccc(OCCCCCCCCCCOc3ccc(/C=C/C(=O)c4ccc(OC)c(OC)c4)cc3)cc2)c(OC)c1"
  GI50: "> 100 µM (inactive)"
- structureSmiles: "CC(=O)Nc1ccc(-c2nc3ccccc3s2)cc1I"
  GI50: "36.8 µM (inactive)"
- structureSmiles: "Nc1c2c(nc3ccccc13)-c1ccccc1CCC2"
  GI50: "13.1 µM (inactive)"
- structureSmiles: "O=C(O)CN(c1ccccc1)S(=O)(=O)c1ccc([N+](=O)[O-])cc1"
  GI50: "> 100 µM (inactive)"

---

Tested on: IGROV-1
measurementNotes: NCI tumour cell line growth inhibition, 48 h
The source made the active and inactive calls. Rule as the data show it: active = GI50 up to about 1.1 µM and inactive = higher.
experimentalEndpoint: GI50

- molecule: "CCCCCCOP(=O)(OCCCCCC)OC(C(=O)OC)C(F)(F)F (stereo not drawn)"
  experimentalEndpoint: "GI50"
  dataValue: "> 100 µM (inactive)"
- molecule: "CC1C(c2ccc3c(c2)OCO3)c2cc3c(cc2OC1N1CCCC1)OCO3 (stereo not drawn)"
  experimentalEndpoint: "GI50"
  dataValue: "30.3 µM (inactive)"
- molecule: "Nc1n[nH]c(N)n1"
  experimentalEndpoint: "GI50"
  dataValue: "7000 µM (inactive)"
- molecule: "Oc1c2cc(Cl)cc1COCc1cc(Cl)cc(c1O)COCc1cc(Cl)cc(c1O)COC2"
  experimentalEndpoint: "GI50"
  dataValue: "17 µM (inactive)"
- molecule: "CCOC(=O)C(C(=S)SC)c1nn2c(=O)cc(C)nc2s1 (stereo not drawn)"
  experimentalEndpoint: "GI50"
  dataValue: "19.6 µM (inactive)"
- molecule: "O=C(O)c1cc(-c2ccc3cc4c(cc3c2)OCO4)nc2ccccc12"
  experimentalEndpoint: "GI50"
  dataValue: "29 µM (inactive)"
- molecule: "Cn1ncc2cc3c(Nc4ccc(Cl)cc4)cccc3nc21"
  experimentalEndpoint: "GI50"
  dataValue: "15.3 µM (inactive)"
- molecule: "O=C(N/N=C/C=C/c1ccccc1)[C@H](O)[C@@H](O)C(=O)N/N=C/C=C/c1ccccc1"
  experimentalEndpoint: "GI50"
  dataValue: "> 100 µM (inactive)"
